MEASUREMENT NOTES: Half life in Sprague-Dawley rat at 1 mg/kg, iv and 1 mg/kg, po
Assay type: ADME, organism-based
RUN PARAMETERS: in vivo
MEASURED METRIC: half-life
Write the numeric value and follow it with the unit.

• CCCCNCc1ccc(-c2nc(CN(C3CCOCC3)S(=O)(=O)c3ccc(OC)cc3)cs2)cc1 = 0.6 h

Request the reported half-life associated with CCCCNCc1ccc(-c2nc(CN(C3CCS(=O)(=O)C3)S(=O)(=O)c3ccc(OC)cc3)cs2)cc1 (stereo not drawn)
1.4 h

Request the reported half-life associated with `CCCCNCc1ccc(-c2nc(CN([C@@H]3CCOC3)S(=O)(=O)c3ccc(OC)cc3)cs2)cc1`
1.1 h
